study_system: T1, recombinant extracellular domain of CD38 (human, UniProt P28907 43-300)
T1 construct: also called CD38 extracellular domain; AtaGenix ATMP00140HU
protocol_notes: Biacore SPR
measured_endpoint: kon (M⁻¹ s⁻¹)
State the answer as a number, implicitly in M⁻¹ s⁻¹.

Please review the entries below; each comes with its answer.
Asked: Endpoint output: kon of FTL004-hu-13 (antibody, human IgG1, kappa, V domains shown, also called FLT004-hu-13; FTL004-hum-13) VH: EVQLVQSGAEVKKPGATVKISCKASGYTFTDYNVHWIQQAPGKGLEWIGYFYPRNGATHYNQKFTGRATLTADTSTDTAYMEISSLRSEDTAVYFCARGETPGTFPYWGQGTLVTVSS VL: DIVLTQSPASLAVSPGQRATITCRASESVDNFGITFMHWYQQKPGQPPKLLIYRASNLESGVPARFSGSGSRTDFTLTINPVEANDTANYYCQQSSKDPRTFGQGTKLEIKR . Value?
Given back: 307000

Asked: Next up: FTL004-hu-15 (antibody, human IgG1, kappa, V domains shown, also called FLT004-hu-15; FTL004-hum-15) VH: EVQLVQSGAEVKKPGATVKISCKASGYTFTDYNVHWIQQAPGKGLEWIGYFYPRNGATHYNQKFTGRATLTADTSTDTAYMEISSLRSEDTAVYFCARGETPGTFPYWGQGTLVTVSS VL: EIVLTQSPATLSLSPGERATLSCRASESVDNFGITFMHWYQQKPGQAPRLLIYRASNLESGIPARFSGSGSRTDFTLTISSLEPEDFAVYYCQQSSKDPRTFGQGTKLEIKR
Given back: 214000

Next:
Asked: Can you look up the measured kon of FTL004-hu-10 (antibody, human IgG1, kappa, V domains shown, also called FLT004-hu-10; FTL004-hum-10) VH: QVQLVQSGAEVKKPGASVKVSCKASGYTFTDYNVHWIRQAPGQGLEWIGYFYPRNGATHYAQKFQGRVTMTVDTSTSTAYMELSSLRSEDTAVYYCARGETPGTFPYWGQGTLVTVSS VL: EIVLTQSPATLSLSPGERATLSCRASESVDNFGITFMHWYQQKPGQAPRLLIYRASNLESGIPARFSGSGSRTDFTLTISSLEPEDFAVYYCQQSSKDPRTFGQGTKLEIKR for me?
Given back: 162000
